Just for reference, patent US6113907A is where these values come from.

Biological target: serotonin transporter (Rattus norvegicus)
Construct: Cerebral cortical membranes derived from male Wistar rats; from tissue; host or cells: cerebral cortical membranes of male Wistar rats
Sequence (P31652 whole entry): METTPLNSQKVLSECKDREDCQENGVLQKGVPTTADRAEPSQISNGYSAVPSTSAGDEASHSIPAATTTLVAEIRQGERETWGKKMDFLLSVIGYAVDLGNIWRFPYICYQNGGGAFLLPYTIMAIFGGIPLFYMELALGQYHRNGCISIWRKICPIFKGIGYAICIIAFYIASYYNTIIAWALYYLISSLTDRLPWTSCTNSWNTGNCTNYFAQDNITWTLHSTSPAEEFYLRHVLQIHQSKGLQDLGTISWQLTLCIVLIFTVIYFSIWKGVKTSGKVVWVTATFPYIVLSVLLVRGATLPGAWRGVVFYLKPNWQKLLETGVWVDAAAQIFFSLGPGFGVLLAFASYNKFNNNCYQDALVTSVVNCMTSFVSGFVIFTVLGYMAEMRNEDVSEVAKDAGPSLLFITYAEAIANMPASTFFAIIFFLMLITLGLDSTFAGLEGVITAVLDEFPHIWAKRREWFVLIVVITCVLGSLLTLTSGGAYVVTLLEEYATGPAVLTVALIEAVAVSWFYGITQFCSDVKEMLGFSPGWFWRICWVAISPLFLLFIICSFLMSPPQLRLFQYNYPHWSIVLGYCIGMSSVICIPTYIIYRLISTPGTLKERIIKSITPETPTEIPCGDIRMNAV
Test: serotonin transporter assay, [125I]-RTI-121, rat cerebral cortical membranes
Format: binding
Settings: read-out: Sero (concentration)
REPORTED_ENDPOINT: IC50 (µM)
Record the value in µM, omitting the unit from your answer.

query: Looking for the measured IC50 of "Cc1cc(O)c2c(=O)c3c(O)cc(O)c4c5c(O)cc(O)c6c(=O)c7c(O)cc(C)c8c1c2c(c34)c(c78)c65" , can you help?
result: 4

====

Biological target: NMDA
Assay: Receptor Binding by Hypericin, NMDA
Conditions: read-out: ~Ki NMDA (Table 7)
REPORTED_ENDPOINT: Ki

query: Form entry - test system: NMDA; read-out: Ki; compound: "Cc1cc(O)c2c(=O)c3c(O)cc(O)c4c5c(O)cc(O)c6c(=O)c7c(O)cc(C)c8c1c2c(c34)c(c78)c65"
result: ~1100 nM

====

Molecular target: monoamine oxidase B
Experiment: MAO-B enzyme activity, rat liver mitochondrial fraction, [3H]dopamine
Assay type: biochemical
Details: read-out: MAOB (concentration)
REPORTED_ENDPOINT: pIC50
// scale note: pIC50 = -log10(conc_M); give the bare number

query: Form entry - test system: monoamine oxidase B; read-out: pIC50; compound: O=c1c(O)c(-c2ccc(O)c(O)c2)oc2cc(O)cc(O)c12 [Quercetin, quercetin]
result: 5.62
